system: GST-Bcl-2; assay: TR-FRET binding assay, Bcl-2; settings: TR-FRET Ki values
Binarize Binding selectivity ratio (Bcl-XL Ki/Bcl-2 Ki) at 300; below is YES, at or above is NO.

Please review the entries below; each comes with its answer.
molecule: CC1(C)CCC(CN2CCN(c3ccc(C(=O)NS(=O)(=O)c4ccc(NC5CCN(CCCF)CC5)c([N+](=O)[O-])c4)c(Oc4ccc5[nH]ccc5c4)c3)CC2)=C(c2ccc(Cl)cc2)C1 [EXAMPLE 235]
assigned label: YES
--
molecule: CC(C)N(C)CCCNc1ccc(S(=O)(=O)NC(=O)c2ccc(N3CCN(Cc4ccccc4-c4ccc(Cl)cc4)CC3)cc2Oc2ccccc2)cc1[N+](=O)[O-] [Example 93]
assigned label: YES
--
molecule: CN1CCC(Nc2ccc(S(=O)(=O)NC(=O)c3ccc(N4CCN(CC5=C(c6ccc(Cl)cc6)CC(C)(C)CC5)CC4)cc3Oc3cccc4[nH]cnc34)cc2[N+](=O)[O-])CC1 [EXAMPLE 418]
assigned label: NO

State whether 300 exceeds Binding selectivity ratio (Bcl-XL Ki/Bcl-2 Ki) recorded for CN(C)CCCCNc1ccc(S(=O)(=O)NC(=O)c2ccc(N3CCN(Cc4ccccc4-c4ccc(Cl)cc4)CC3)cc2Oc2ccccc2)cc1[N+](=O)[O-] [Example 156] .
YES

FYI, the data here is from patent US9125913B2.
